meta.source: ChEMBL document CHEMBL3997829

experiment: Cmax in Sprague-Dawley rat at 15 mg/kg, po; format: ADME, organism-based; design: dose 15 mg/kg, route oral; conditions: in vivo
measured.parameter: Cmax (µM)
Numeric only. Scale: µM

Cc1ccc(-n2nccn2)c(C(=O)N2C[C@@H]3CN(c4nc5cc(Cl)ccc5o4)C[C@@H]3C2)c1    2.1

With those in mind, consider the next compound.
Query: # input compound: Cc1ccc(-n2nccn2)c(C(=O)N2C[C@@H]3CN(c4nc5ccccc5o4)C[C@@H]3C2)c1 ; wanted: its Cmax
Reply: 10.6

====

Reported IC50 by item:
target: Voltage-gated inwardly rectifying potassium channel KCNH2 (Homo sapiens, UniProt Q12809)
Sequence (Q12809 whole entry): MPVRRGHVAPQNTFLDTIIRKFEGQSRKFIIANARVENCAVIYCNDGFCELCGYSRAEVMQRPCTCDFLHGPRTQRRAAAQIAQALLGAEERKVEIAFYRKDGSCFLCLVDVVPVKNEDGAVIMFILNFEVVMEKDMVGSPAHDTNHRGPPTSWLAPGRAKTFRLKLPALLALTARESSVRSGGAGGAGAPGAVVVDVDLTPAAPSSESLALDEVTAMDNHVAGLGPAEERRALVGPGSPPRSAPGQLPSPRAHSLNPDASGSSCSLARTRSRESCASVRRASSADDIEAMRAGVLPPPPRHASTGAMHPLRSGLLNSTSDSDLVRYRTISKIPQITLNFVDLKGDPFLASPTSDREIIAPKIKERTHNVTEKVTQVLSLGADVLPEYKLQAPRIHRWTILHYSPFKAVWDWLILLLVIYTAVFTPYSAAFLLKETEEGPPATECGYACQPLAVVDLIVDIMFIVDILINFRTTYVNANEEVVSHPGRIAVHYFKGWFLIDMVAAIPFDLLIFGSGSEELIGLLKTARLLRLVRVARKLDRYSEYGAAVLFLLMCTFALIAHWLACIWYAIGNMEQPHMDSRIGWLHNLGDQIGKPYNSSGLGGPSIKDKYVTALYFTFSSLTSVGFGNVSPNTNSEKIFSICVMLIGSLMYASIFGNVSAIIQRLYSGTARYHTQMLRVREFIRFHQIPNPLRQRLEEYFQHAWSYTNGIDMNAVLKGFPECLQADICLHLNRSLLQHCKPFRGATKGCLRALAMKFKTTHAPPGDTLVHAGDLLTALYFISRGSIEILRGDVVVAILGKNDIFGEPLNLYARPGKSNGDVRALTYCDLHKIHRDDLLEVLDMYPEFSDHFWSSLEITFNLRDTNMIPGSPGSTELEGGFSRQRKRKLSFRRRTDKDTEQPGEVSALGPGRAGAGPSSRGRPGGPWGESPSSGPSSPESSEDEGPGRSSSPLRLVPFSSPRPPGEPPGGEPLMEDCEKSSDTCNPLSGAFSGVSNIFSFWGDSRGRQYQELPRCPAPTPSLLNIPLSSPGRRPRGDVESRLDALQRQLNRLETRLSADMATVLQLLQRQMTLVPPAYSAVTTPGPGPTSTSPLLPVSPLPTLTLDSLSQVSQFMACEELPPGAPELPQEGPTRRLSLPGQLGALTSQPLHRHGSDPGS

Cc1ccc(-n2nccn2)c(C(=O)N2C[C@@]3(F)CN(c4nc5cc(Cl)ccc5o4)C[C@@]3(F)C2)c1    > 30 µM

Query: For Voltage-gated inwardly rectifying potassium channel KCNH2 (Homo sapiens, UniProt Q12809), provide IC50 of Cc1ccc(-n2nccn2)c(C(=O)N2C[C@@]3(F)CN(c4nc5ccccc5o4)C[C@@]3(F)C2)c1 please.
Reply: > 30 µM

====

target: Orexin/Hypocretin receptor type 1 (Homo sapiens, UniProt O43613); assay: Antagonist activity at human orexin 1 receptor expressed in HEK293 cells assessed as inhibition of orexin-induced calcium mobilization after 60 mins by FLIPR assay; type: functional, cell-based
Sequence (O43613 whole entry): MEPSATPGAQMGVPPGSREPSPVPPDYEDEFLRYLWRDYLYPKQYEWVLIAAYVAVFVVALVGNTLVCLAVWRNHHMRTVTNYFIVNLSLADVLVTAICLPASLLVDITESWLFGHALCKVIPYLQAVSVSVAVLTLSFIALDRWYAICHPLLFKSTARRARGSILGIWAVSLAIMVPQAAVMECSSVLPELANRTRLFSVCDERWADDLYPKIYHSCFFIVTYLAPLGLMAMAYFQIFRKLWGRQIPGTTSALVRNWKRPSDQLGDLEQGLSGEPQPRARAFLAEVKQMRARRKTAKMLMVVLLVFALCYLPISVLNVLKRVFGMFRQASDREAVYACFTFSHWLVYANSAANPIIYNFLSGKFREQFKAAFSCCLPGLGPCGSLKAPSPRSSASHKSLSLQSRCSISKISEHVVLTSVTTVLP
measured.parameter: IC50 (nM)
Numeric only. Scale: nM

Cc1ccc(-n2nccn2)c(C(=O)N2C[C@@]3(F)CN(c4nc5ccccc5o4)C[C@@]3(F)C2)c1    908
Cc1ccc(-n2nccn2)c(C(=O)N2C[C@@H]3CN(c4nc5cc(F)ccc5o4)C[C@@H]3C2)c1    293
Cc1ccc(-n2nccn2)c(C(=O)N2CC3CN(c4nc5cc(Cl)ccc5o4)CC3(C)C2)c1 (stereo not drawn)    736

Query: For Orexin/Hypocretin receptor type 1 (Homo sapiens, UniProt O43613), provide IC50 of COc1ccc(-n2nccn2)c(C(=O)N2C[C@@H]3CN(c4nc5cc(Cl)ccc5o4)C[C@@H]3C2)c1 please.
Reply: 517

Query: For Orexin/Hypocretin receptor type 1 (Homo sapiens, UniProt O43613), provide IC50 of Cc1ccc(-n2nccn2)c(C(=O)N2C[C@@H]3CN(c4nc5ccccc5n4C)C[C@@H]3C2)c1 please.
Reply: 1640

Query: For Orexin/Hypocretin receptor type 1 (Homo sapiens, UniProt O43613), provide IC50 of COc1ccc2oc(N3C[C@H]4CN(C(=O)c5cc(C)ccc5-n5nccn5)C[C@H]4C3)nc2c1 please.
Reply: 401

Query: For Orexin/Hypocretin receptor type 1 (Homo sapiens, UniProt O43613), provide IC50 of Cc1ccc(-n2nccn2)c(C(=O)N2C[C@@H]3CN(c4nc(-c5cccc(Cl)c5)co4)C[C@@H]3C2)c1 please.
Reply: 1010

====

experiment: Ratio of drug level in brain to plasma in Sprague-Dawley rat at 10 mg/kg, po at 0.5 hrs; type: ADME, organism-based; settings: read-out: BPR
measured.parameter: Kp at 0.5 h
Kindly provide the number alone.

Example cases with answers are listed next.
Cc1ccc(-n2nccn2)c(C(=O)N2C[C@@H]3CN(c4nc5cc(F)ccc5o4)C[C@@H]3C2)c1    0.06
Cc1ccc(-n2nccn2)c(C(=O)N2C[C@@H]3CN(c4nc5cc(Cl)ccc5o4)C[C@@H]3C2)c1    0.19
Cc1ccc(-n2nccn2)c(C(=O)N2C[C@@H]3CN(c4nc5ccccc5o4)C[C@@H]3C2)c1    0.13

With those in mind, consider the next compound.
Query: # input compound: Cc1ccc(-n2nccn2)c(C(=O)N2C[C@@H]3CN(c4ncc5cc(F)ccc5n4)C[C@@H]3C2)c1 ; wanted: its Kp at 0.5 h
Reply: 0.14

====

Reported bioavailability by item:
assay: Oral bioavailability in Sprague-Dawley rat at 15 mg/kg; format: ADME, organism-based; conditions: in vivo
Numeric only. Scale: %

Cc1ccc(-n2nccn2)c(C(=O)N2C[C@@H]3CN(c4nc5ccccc5o4)C[C@@H]3C2)c1    23

Query: # input compound: Cc1ccc(-n2nccn2)c(C(=O)N2C[C@@H]3CN(c4nc5cc(Cl)ccc5o4)C[C@@H]3C2)c1 ; wanted: its bioavailability
Reply: 27

====

experiment: Half life in Sprague-Dawley rat at 2 mg/kg, iv; type: ADME, organism-based; settings: in vivo
measured.parameter: half-life

Cc1ccc(-n2nccn2)c(C(=O)N2C[C@@H]3CN(c4nc5ccccc5o4)C[C@@H]3C2)c1    1.9 h

With those in mind, consider the next compound.
Query: # input compound: Cc1ccc(-n2nccn2)c(C(=O)N2C[C@@H]3CN(c4nc5cc(Cl)ccc5o4)C[C@@H]3C2)c1 ; wanted: its half-life
Reply: 0.73 h

====

experiment: Plasma concentration in Sprague-Dawley rat at 10 mg/kg, po at 1 hr; assay type: ADME, organism-based
Reported concentration at 1 h by item:
Numeric only. Scale: nM

Cc1ccc(-n2nccn2)c(C(=O)N2C[C@@H]3CN(c4ncc5cc(F)ccc5n4)C[C@@H]3C2)c1    328

Query: # input compound: Cc1ccc(-n2nccn2)c(C(=O)N2C[C@@H]3CN(c4nc5ccccc5o4)C[C@@H]3C2)c1 ; wanted: its concentration at 1 h
Reply: 3470

Query: # input compound: Cc1ccc(-n2nccn2)c(C(=O)N2C[C@@H]3CN(c4nc5cc(F)ccc5o4)C[C@@H]3C2)c1 ; wanted: its concentration at 1 h
Reply: 859

Query: # input compound: Cc1ccc(-n2nccn2)c(C(=O)N2C[C@@H]3CN(c4nc5cc(Cl)ccc5o4)C[C@@H]3C2)c1 ; wanted: its concentration at 1 h
Reply: 2500

====

assay: Tmax in Sprague-Dawley rat at 15 mg/kg, po; assay type: ADME, organism-based; conditions: in vivo
measured.parameter: Tmax (min)
Numeric only. Scale: min

Cc1ccc(-n2nccn2)c(C(=O)N2C[C@@H]3CN(c4nc5cc(Cl)ccc5o4)C[C@@H]3C2)c1    25.2

With those in mind, consider the next molecule.
Query: # input molecule: Cc1ccc(-n2nccn2)c(C(=O)N2C[C@@H]3CN(c4nc5ccccc5o4)C[C@@H]3C2)c1 ; wanted: its Tmax
Reply: 15

====

target: Orexin/Hypocretin receptor type 1 (Homo sapiens, UniProt O43613); assay: Antagonist activity at human orexin 1 receptor expressed in HEK293 cells assessed as inhibition of orexin-induced calcium mobilization after 60 mins by FLIPR assay
pIC50: −log10 of the molar value.
Param threshold (6) applies to pIC50; output YES when value >= threshold, NO when value < threshold.

The examples below pair each entry with its known result.
Cc1ccc(-n2nccn2)c(C(=O)N2C[C@@H]3CN(c4nc(C)c(C)c(C)n4)C[C@@H]3C2)c1    NO
Cc1ccc(-n2nccn2)c(C(=O)N2C[C@@H]3CN(c4nc5cc(Cl)ccc5o4)C[C@@H]3C2)c1    YES
Cc1ccc(-n2nccn2)c(C(=O)N2C[C@@H]3CN(c4ncc5cc(F)ccc5n4)C[C@@H]3C2)c1    YES

Query: Threshold query (pIC50 >= 6) on Cc1ccc(-n2nccn2)c(C(=O)N2C[C@@H]3CN(c4nc5ccccc5o4)C[C@@H]3C2)c1
Reply: YES

Query: Threshold query (pIC50 >= 6) on O=C(c1cc(OC(F)(F)F)ccc1-n1nccn1)N1C[C@@H]2CN(c3nc4cc(Cl)ccc4o3)C[C@@H]2C1
Reply: YES

Query: Threshold query (pIC50 >= 6) on Cc1ccc(-n2nccn2)c(C(=O)N2C[C@@]3(C)CN(c4nc5cc(Cl)ccc5o4)C[C@@]3(C)C2)c1
Reply: NO

Query: Threshold query (pIC50 >= 6) on O=C(c1cc(Cl)ccc1-n1nccn1)N1C[C@@H]2CN(c3nc4cc(Cl)ccc4o3)C[C@@H]2C1
Reply: NO

====

experiment: Clearance in Sprague-Dawley rat at 2 mg/kg, iv; type: ADME, organism-based; conditions: in vivo
measured.parameter: clearance (mL/min/kg)
Numeric only. Scale: mL/min/kg

Cc1ccc(-n2nccn2)c(C(=O)N2C[C@@H]3CN(c4nc5ccccc5o4)C[C@@H]3C2)c1    10

With those in mind, consider the next compound.
Query: # input compound: Cc1ccc(-n2nccn2)c(C(=O)N2C[C@@H]3CN(c4nc5cc(Cl)ccc5o4)C[C@@H]3C2)c1 ; wanted: its clearance
Reply: 32

====

Target: Orexin receptor type 2 (Homo sapiens)
Sequence (O43614 whole entry): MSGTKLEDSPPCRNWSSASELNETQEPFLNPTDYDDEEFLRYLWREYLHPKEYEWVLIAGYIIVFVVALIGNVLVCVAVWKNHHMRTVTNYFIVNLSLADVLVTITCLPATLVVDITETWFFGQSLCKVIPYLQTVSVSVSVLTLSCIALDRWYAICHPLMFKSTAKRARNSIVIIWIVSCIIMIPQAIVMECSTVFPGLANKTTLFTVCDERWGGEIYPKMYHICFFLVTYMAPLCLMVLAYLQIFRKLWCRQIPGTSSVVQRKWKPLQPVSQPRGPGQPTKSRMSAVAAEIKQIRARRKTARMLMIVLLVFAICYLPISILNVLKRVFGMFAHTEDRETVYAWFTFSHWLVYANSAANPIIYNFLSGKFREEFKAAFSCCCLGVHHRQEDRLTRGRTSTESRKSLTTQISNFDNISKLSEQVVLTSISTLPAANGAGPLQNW
Assay: Antagonist activity at human orexin 2 receptor expressed in HEK293 cells assessed as inhibition of orexin-induced calcium mobilization after 60 mins by FLIPR assay
measured.parameter: pIC50
Convention used: pIC50 is expressed as -log10 of the molar concentration.

Example cases with answers are listed next.
O=C(c1cc(C(F)(F)F)ccc1-n1nccn1)N1C[C@@H]2CN(c3nc4cc(Cl)ccc4o3)C[C@@H]2C1    5.98
O=C(c1cc(F)ccc1-n1nccn1)N1C[C@@H]2CN(c3nc4cc(Cl)ccc4o3)C[C@@H]2C1    6.10
Cc1ccc(-n2nccn2)c(C(=O)N2C[C@@H]3CN(c4nc5ccccc5n4C)C[C@@H]3C2)c1    6.11
Cc1ccc(-n2nccn2)c(C(=O)N2C[C@@H]3CN(c4nc5cc(Cl)ccc5s4)C[C@@H]3C2)c1    5.93

With those in mind, consider the next molecule.
Query: # input molecule: O=C(c1cc(Cl)ccc1-n1nccn1)N1C[C@@H]2CN(c3nc4cc(Cl)ccc4o3)C[C@@H]2C1 ; wanted: its pIC50
Reply: 5.90
